- method description: amyloid nucleation score (Sup35N fusion, yeast selection) (log enrichment); library NNK1; higher = more nucleation; inactive = no reads after selection;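 note: zero at mode of non-aggregating sequences after 7 days selection at 30°C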
Threshold check on amyloid nucleation score: at or above -0.08 gives MET, strictly below gives NOT MET.

- substance: "LLNSFPSNCQVKDMELQGME"
  group: "NOT MET"
- substance: "WSSYGCAAEMDALVCHGDAF"
  group: "MET"
- substance: "KMLSMLTDRSFWLNHWSFFQ"
  group: "NOT MET"
- substance: "PPLAYWVYPMVRTLFEGRVP"
  group: "MET"
- substance: "LLCDWDGQ"
  group: "MET"
- substance: "SVSACPRVPMCIYGYLCWCH"
  group: "NOT MET"
- substance: "RWCGKPRICFSISEAVDKLH"
  group: "NOT MET"
- substance: "LWDVRPWRWVWEWENVNYGK"
  group: "MET"
- substance: "INRHVAMWEDQVLSRLAMWF"
  group: "MET"
- substance: "SWGQTLTMNNP"
  group: "NOT MET"
- substance: "KDARLHFSWRL"
  group: "MET"
- substance: "ESVTWSWE"
  group: "MET"
- substance: "GCSLWVGVLCKNCFFDDLIM"
  group: "MET"
- substance: "RGSIRIKDMTCGLEIGIALR"
  group: "MET"
- substance: "SWFYDGCSRPWRGIGDRRVC"
  group: "NOT MET"
- substance: "TSVHDRQELRDRLV"
  group: "MET"
- substance: "DALWKVFKDWLGGADQRGFP"
  group: "MET"
- substance: "YDYMVALFSRS"
  group: "NOT MET"
- substance: "FFGFCSSVES"
  group: "MET"
- substance: "YAAVLLNFT"
  group: "MET"
- substance: "LVFVSFIW"
  group: "MET"
- substance: "HLVDFMDE"
  group: "MET"
- substance: "PSWWVMEFTWIPQNGGLLSL"
  group: "MET"
- substance: "PLVGWSRYSGAIPTSVMFLA"
  group: "MET"
- substance: "RWGAYVYGQSVSINGIRIVL"
  group: "MET"
- substance: "WYIMGFTNDRVLRNLMCYTC"
  group: "MET"
- substance: "CSFMCLARLVSYQIESLW"
  group: "MET"
- substance: "ISPRDHESLTNFHVRLCHMR"
  group: "MET"
- substance: "FDGFRGNG"
  group: "MET"
- substance: "CIDDFSNFVRNVGAFGEYSF"
  group: "NOT MET"
- substance: "LYTVTTKR"
  group: "NOT MET"
- substance: "CLQFSVEARRLLKLNVGALE"
  group: "MET"
- substance: "RARTKAWWMDWSGYRRGGHL"
  group: "MET"
- substance: "GRSFGQSGRISRAGNVGIIC"
  group: "NOT MET"
- substance: "ASIYCWLLNRHLDDDFLWLS"
  group: "NOT MET"
- substance: "VMRVFILSMFWIVSECNRSY"
  group: "MET"
- substance: "RIGTGSHLWII"
  group: "NOT MET"
- substance: "ANSVIFDGRSKGLAKHTVSY"
  group: "NOT MET"
- substance: "YVWAAIGVRLYSRHK"
  group: "MET"
- substance: "PQSHQKTRTFLFMRSTSSMW"
  group: "NOT MET"
- substance: "DFCLNGSYFNTLDNSGCSSL"
  group: "NOT MET"
- substance: "PDSLFPLCFLRLWLISSIVR"
  group: "MET"
- substance: "DKLDSLIRVLNRLDNL"
  group: "NOT MET"
- substance: "NYETPGRFDKSVSTGEAFQS"
  group: "NOT MET"
- substance: "FKCRACMLYDVYIAERWVTG"
  group: "MET"
- substance: "PRLARMLLHDGAEYDCELSC"
  group: "NOT MET"
- substance: "QSNSTYYGGSSRSGEKFPLG"
  group: "MET"
- substance: "IKSEAWICCTSLYMNQGDRS"
  group: "MET"
- substance: "NNKKNY"
  group: "NOT MET"
- substance: "SVLLRFYFTRNCGFFGRSTV"
  group: "MET"
- substance: "LSIFMTITAVESPWVTETVF"
  group: "NOT MET"
- substance: "ISLIFHVMNDLWCIAIELGS"
  group: "MET"
- substance: "FDTGGVRRRCACVSLYGVDV"
  group: "MET"
- substance: "VGRGSGPRAQYMWLSKTEAG"
  group: "NOT MET"
- substance: "LRVTSFMIMQLDLECPRCQI"
  group: "MET"
- substance: "PGTGPVCQNGDVAF"
  group: "NOT MET"
- substance: "EVISPFQLSSDVGGMSRLGV"
  group: "MET"
- substance: "DNRLVSSGMRRGHSGWIGGT"
  group: "MET"
- substance: "NRNVYRSGVFGSGVWTRVER"
  group: "MET"
- substance: "FNYIFRWLVMGTGSCTGS"
  group: "MET"
- substance: "LTISRSYRPKWFSVSTGLDS"
  group: "MET"
- substance: "FAVSRVEMNLGL"
  group: "NOT MET"
- substance: "VKRLTRAVFCSFKSRVARSS"
  group: "MET"
- substance: "GFYPHANLTMFRALNKCGEV"
  group: "MET"
- substance: "CITTVPHQPMVLWTICFPTM"
  group: "MET"
- substance: "FTSLWDCALTHVVTFPAILG"
  group: "NOT MET"
